Test: Luminescence activity assay of purified Gaussia luciferase mutants on coelenterazine
Type: biochemical
Parameters: key: ratio of mutant luminescence intensity to wild-type Gaussia luciferase
Details: Substrate CTZ (Table 16)
Protocol: In this Example, the protein concentration was determined with a BCA quantitative kit (Thermo Scientific™ Pierce™ BCA Protein Assay Kit) accurately. […] The mutation site of the mutant, the measured luminescence intensity, the ratio of luminescence intensities of the advantageous mutants to the wild-type Gaussia luciferase without the signal peptide having the sequence shown in SEQ ID NO: 3 are shown in Table 15. […]
Assign classes using reported Activity of mutant relative to wild-type Gaussia luciferase without the signal peptide values and the ranges range 1 = under 0.2, range 2 = from 0.2 up to 1, range 3 = 1 and over, please.

Illustrative cases are given below, each with its answer.
Lab log: P84A E102A S103I E110P D123N: Gaussia luciferase mutant (protein, SIGNAL (1)..(17), Gaussia luciferase mutant) MGVKVLFALICIAVAEAKPTENNEDFNIVAVASNFATTDLDADRGKLPGKKLPLEVLKEMEANARKAGCTRGCLICLSHIKCTAKMKKFIPGRCHTYEGDKAIAQGGIGPAIVDIPEIPGFKNLEPMEQFIAQVDLCVDCTTGCLKGLANVQCSDLLKKWLPQRCATFASKIQGQVDKIKGAGGD — assign Activity of mutant relative to wild-type Gaussia luciferase without the signal peptide category
range 3

Any idea which band T96P Q163D T167S G174N K178S A182Y G183A: Gaussia luciferase mutant (protein, SIGNAL (1)..(17), Gaussia luciferase mutant) MGVKVLFALICIAVAEAKPTENNEDFNIVAVASNFATTDLDADRGKLPGKKLPLEVLKEMEANARKAGCTRGCLICLSHIKCTPKMKKFIPGRCHPYEGDKESAQGGIGEAIVDIPEIPGFKDLEPMEQFIAQVDLCVDCTTGCLKGLANVQCSDLLKKWLPDRCASFASKIQNQVDSIKGYAGD is in?
range 1

Any idea which band F26R V29R A30V V31L S33G A36V T37R: Gaussia luciferase mutant (protein, SIGNAL (1)..(17), Gaussia luciferase mutant) MGVKVLFALICIAVAEAKPTENNEDRNIRVLAGNFVRTDLDADRGKLPGKKLPLEVLKEMEANARKAGCTRGCLICLSHIKCTPKMKKFIPGRCHTYEGDKESAQGGIGEAIVDIPEIPGFKDLEPMEQFIAQVDLCVDCTTGCLKGLANVQCSDLLKKWLPQRCATFASKIQGQVDKIKGAGGD is in?
range 2

Band of T167S S170D G174N Q175E K178N A182L: Gaussia luciferase mutant (protein, SIGNAL (1)..(17), Gaussia luciferase mutant) MGVKVLFALICIAVAEAKPTENNEDFNIVAVASNFATTDLDADRGKLPGKKLPLEVLKEMEANARKAGCTRGCLICLSHIKCTPKMKKFIPGRCHTYEGDKESAQGGIGEAIVDIPEIPGFKDLEPMEQFIAQVDLCVDCTTGCLKGLANVQCSDLLKKWLPQRCASFADKIQNEVDNIKGLGGD ?
range 2

Class? Entry: F26L N27D V29A V31L A32D S33N T37E L40T: Gaussia luciferase mutant (protein, SIGNAL (1)..(17), Gaussia luciferase mutant) MGVKVLFALICIAVAEAKPTENNEDLDIAALDNNFAETDTDADRGKLPGKKLPLEVLKEMEANARKAGCTRGCLICLSHIKCTPKMKKFIPGRCHTYEGDKESAQGGIGEAIVDIPEIPGFKDLEPMEQFIAQVDLCVDCTTGCLKGLANVQCSDLLKKWLPQRCATFASKIQGQVDKIKGAGGD
range 1

New cases:
Hey, which category is F26L V29A V31I A32D S33R A36N T37E LA0P: Gaussia luciferase mutant (protein) MGVKVLFALICIAVAEAKPTENNEDLNIAAIDRNFNETDLDADRGKLPGKKLPLEVLKEMEANARKAGCTRGCLICLSHIKCTPKMKKFIPGRCHTYEGDKESAQGGIGEAIVDIPEIPGFKDLEPMEQFIAQVDLCVDCTTGCLKGLANVQCSDLLKKWLPQRCATFASKIQGQVDKIKGAGGD in, do you know?
range 2

For this molecule, which bin applies? A42G Q152C T167G S170T G174N K178S A182Y G183A: Gaussia luciferase mutant (protein, SIGNAL (1)..(17), Gaussia luciferase mutant) MGVKVLFALICIAVAEAKPTENNEDFNIVAVASNFATTDLDGDRGKLPGKKLPLEVLKEMEANARKAGCTRGCLICLSHIKCTPKMKKFIPGRCHTYEGDKESAQGGIGEAIVDIPEIPGFKDLEPMEQFIAQVDLCVDCTTGCLKGLANVCCSDLLKKWLPQRCAGFATKIQNQVDSIKGYAGD
range 3
